- assayNotes: Cytotoxicity against african green monkey Vero cells after 72 hrs by MTT assay
- Format: cell-based
- condition: chlorocebus sabaeus
Catalogue of CC50 at 72 h values
The reply should be a number in µM, with the unit left off.

Worked examples follow.
{"compound": "CC1=CCCC(C)(C)C1/C=C/C(=O)/C=C/c1ccc(-n2cncn2)cc1 (stereo not drawn)", "CC50 at 72 h, µM": 38.5}
{"compound": "CCCCCCCCCCCCCCCCOP(=O)([O-])OCC[N+](C)(C)C", "CC50 at 72 h, µM": 54.7}
{"compound": "CC1=CCCC(C)(C)C1/C=C/C1=NN(c2ccccc2)C(c2ccc(-n3cncn3)cc2)C1 (stereo not drawn)", "CC50 at 72 h, µM": 296}
{"compound": "CC1=C(/C=C/C(=O)/C=C/c2ccc(-n3cncn3)cc2)C(C)(C)CCC1", "CC50 at 72 h, µM": 72.4}
{"compound": "Clc1ccc(COC(Cn2ccnc2)c2ccc(Cl)cc2Cl)c(Cl)c1 (stereo not drawn)", "CC50 at 72 h, µM": 37.4}

Lab note: measured CC50 at 72 h of CC1=C(/C=C/C2=NN(c3ccc(F)cc3)C(c3ccc(-n4cncn4)cc3)C2)C(C)(C)CCC1 (stereo not drawn) was 58.6

Lab note: measured CC50 at 72 h of CC1=CCCC(C)(C)C1/C=C/C1=NN(c2ccc(F)cc2)C(c2ccc(-n3cncn3)cc2)C1 (stereo not drawn) was 72.2

Lab note: measured CC50 at 72 h of CC1=C(/C=C/C2=NN(c3ccccc3)C(c3ccc(-n4cncn4)cc3)C2)C(C)(C)CCC1 (stereo not drawn) was 112

###

- assayNotes: Selectivity index, ratio of CC50 for african green monkey Vero cells to IC50 for amastigotes of Leishmania donovani
- Assay type: functional
outcomeMeasure: Ratio CC50/IC50
// response body must contain only the number

{"compound": "CC1=C(/C=C/C(=O)/C=C/c2ccc(-n3cncn3)cc2)C(C)(C)CCC1", "Ratio CC50/IC50": 5}
{"compound": "CC1=CCCC(C)(C)C1/C=C/C(=O)/C=C/c1ccc(-n2cncn2)cc1 (stereo not drawn)", "Ratio CC50/IC50": 3}
{"compound": "Clc1ccc(COC(Cn2ccnc2)c2ccc(Cl)cc2Cl)c(Cl)c1 (stereo not drawn)", "Ratio CC50/IC50": 7}
{"compound": "CC1=C(/C=C/C2=NN(c3ccccc3)C(c3ccc(-n4cncn4)cc3)C2)C(C)(C)CCC1 (stereo not drawn)", "Ratio CC50/IC50": 18}

Lab note: measured Ratio CC50/IC50 of CC1=CCCC(C)(C)C1/C=C/C1=NN(c2ccccc2)C(c2ccc(-n3cncn3)cc2)C1 (stereo not drawn) was 32

Lab note: measured Ratio CC50/IC50 of CC1=CCCC(C)(C)C1/C=C/C1=NN(c2ccc(F)cc2)C(c2ccc(-n3cncn3)cc2)C1 (stereo not drawn) was 4

Lab note: measured Ratio CC50/IC50 of CCCCCCCCCCCCCCCCOP(=O)([O-])OCC[N+](C)(C)C was 6

Lab note: measured Ratio CC50/IC50 of CC1=C(/C=C/C2=NN(c3ccc(F)cc3)C(c3ccc(-n4cncn4)cc3)C2)C(C)(C)CCC1 (stereo not drawn) was 5
